The values you see were collected from patent US20250188176A1.

Consider the following binders; for each one, report its kon.
tested.target: T1, Extracellular domain (ECD) of the canine IL-4 receptor alpha-V5 epitope-AviTag-His Tag (canine)
T1 construct: monomeric form isolated by size exclusion; also called canine IL-4RA-V5-Avi-His; canine IL-4RA
T1 chain: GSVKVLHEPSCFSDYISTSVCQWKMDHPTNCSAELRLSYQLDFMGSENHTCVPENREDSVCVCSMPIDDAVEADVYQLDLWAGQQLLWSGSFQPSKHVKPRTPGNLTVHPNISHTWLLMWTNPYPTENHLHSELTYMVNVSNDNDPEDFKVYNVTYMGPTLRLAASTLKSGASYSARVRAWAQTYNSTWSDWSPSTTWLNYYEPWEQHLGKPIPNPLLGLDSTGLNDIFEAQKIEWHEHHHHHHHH
measurement.protocol: SPR, Fab-SASA captured on BSA;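 also: biacore T200 SPR, Fab-SASA variants from E. coli conditioned medium captured on BSA-coated CM5 chip, canine IL-4RA injected 120 s then 420 s dissociation, 1:1 model fit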
Give the value in M⁻¹ s⁻¹ but do not write M⁻¹ s⁻¹ after it.

Please report the recorded kon for TB640_005 Fab-SASA VH-L112M (Fab, V domains shown, not shown: SASA tag then His-tag) VH: EVQLVESGGDLVKPGGSLRLSCVASGFTFRDYAMTWVRQAPGKGLQWVSLISGSGGKTYYADAVKGRFTISRDNAKNTLYLQMNSLRAEDTAVYYCAVDRLTKTIRPQYYGMWVWGQGTLVTVSS VL: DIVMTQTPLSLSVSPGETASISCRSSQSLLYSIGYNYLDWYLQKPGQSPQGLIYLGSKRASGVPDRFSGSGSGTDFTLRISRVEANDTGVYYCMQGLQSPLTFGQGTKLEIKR .
35300

Please report the recorded kon for TB640_005 Fab-SASA VL-T102L (Fab, V domains shown, not shown: SASA tag then His-tag) VH: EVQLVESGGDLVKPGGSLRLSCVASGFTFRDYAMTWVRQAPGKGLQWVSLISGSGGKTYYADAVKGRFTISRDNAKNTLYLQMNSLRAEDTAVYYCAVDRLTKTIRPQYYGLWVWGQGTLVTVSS VL: DIVMTQTPLSLSVSPGETASISCRSSQSLLYSIGYNYLDWYLQKPGQSPQGLIYLGSKRASGVPDRFSGSGSGTDFTLRISRVEANDTGVYYCMQGLQSPLLFGQGTKLEIKR .
86000
